Species: Rattus norvegicus
Experiment: Open TG-GATES - Regimen: Daily Repeat
Assay type: toxicity, organism-based, Sprague-Dawley
Parameters: regimen Daily Repeat, gender Male, age 6 weeks
Conditions: in vivo, po, 1000 mg/kg, 72 h, tissue Plasma, route gavage, dose level High, time 3 day

| COMPOUND | TG / mg/dL |
| --- | --- |
| O=C(OC[C@H]1O[C@@H](OC(=O)c2cc(O)c(O)c(OC(=O)c3cc(O)c(O)c(O)c3)c2)[C@H](OC(=O)c2cc(O)c(O)c(OC(=O)c3cc(O)c(O)c(O)c3)c2)[C@@H](OC(=O)c2cc(O)c(O)c(OC(=O)c3cc(O)c(O)c(O)c3)c2)[C@@H]1OC(=O)c1cc(O)c(O)c(OC(=O)c2cc(O)c(O)c(O)c2)c1)c1cc(O)c(O)c(OC(=O)c2cc(O)c(O)c(O)c2)c1 [TANNIC ACID] | 88.6 |
| CNC(=C[N+](=O)[O-])NCCSCc1ccc(CN(C)C)o1 [RANITIDINE] | 107.4 |
| CN/C(=N/CCSCc1nc[nH]c1C)NC#N [CIMETIDINE] | 118.6 |
| CCOc1ccc(NC(C)=O)cc1 [PHENACETIN] | 87.4 |
| Cc1nnc2n1-c1ccc(Cl)cc1C(c1ccccc1Cl)=NC2 [TRIAZOLAM] | 84.2 |
| COC(=O)C1=C(C)NC(C)=C(C(=O)OC)C1c1ccccc1[N+](=O)[O-] [NIFEDIPINE] | 54 |

* * *

Organism: Rattus norvegicus
Assay: Open TG-GATES - Regimen: Single
Type: toxicity, organism-based, Sprague-Dawley
Design: regimen Single, gender Male, age 6 weeks
Details: in vivo, po, 1000 mg/kg, 3 h, tissue Blood, route gavage, dose level High

| COMPOUND | RBC (x10_4/ul) |
| --- | --- |
| Cc1nnc2n1-c1ccc(Cl)cc1C(c1ccccc1Cl)=NC2 [TRIAZOLAM] | 663 |
| O=C(OC[C@H]1O[C@@H](OC(=O)c2cc(O)c(O)c(OC(=O)c3cc(O)c(O)c(O)c3)c2)[C@H](OC(=O)c2cc(O)c(O)c(OC(=O)c3cc(O)c(O)c(O)c3)c2)[C@@H](OC(=O)c2cc(O)c(O)c(OC(=O)c3cc(O)c(O)c(O)c3)c2)[C@@H]1OC(=O)c1cc(O)c(O)c(OC(=O)c2cc(O)c(O)c(O)c2)c1)c1cc(O)c(O)c(OC(=O)c2cc(O)c(O)c(O)c2)c1 [TANNIC ACID] | 597.4 |

* * *

// reported Fbg for each item listed
Organism: Rattus norvegicus
Assay: Open TG-GATES - Regimen: Daily Repeat
Type: toxicity, organism-based, Sprague-Dawley
Parameters: regimen Daily Repeat, gender Male, age 6 weeks
Settings: in vivo, po, 0 mg/kg, […], tissue Blood, route gavage, dose level Control, time 7 day

| MOLECULE_SMILES | Fbg / mg/dL |
| --- | --- |
| CN/C(=N/CCSCc1nc[nH]c1C)NC#N | 228 |
| CC(C)NNC(=O)c1ccncc1 | 304.6 |
| Cc1nnc2n1-c1ccc(Cl)cc1C(c1ccccc1Cl)=NC2 | 262.4 |
| CCOc1ccc(NC(C)=O)cc1 | 300.2 |
| Brc1ccccc1 | 283.4 |
| Nc1c2c(nc3ccccc13)CCCC2 | 289 |
